Measured values drawn from PubChem BioAssay (NCI) for this set.

System: HCT-116 colon
Experiment: NCI tumour cell line growth inhibition, 48 h; in the data active means GI50 below about 0.43 µM; inactive means the rest
// one of yes (active), no (inactive), no free text

Lookup: Which result was noted for this compound in the test: `O=C1/C(=C\c2ccc(F)cc2)CN(C(=O)c2ccccc2)C/C1=C\c1ccc(F)cc1`
Found: no

Lookup: Which result was noted for this compound in the test: `CN(C)c1ccc(/C=C/c2ccnc3c(O)cccc23)cc1`
Found: yes

Lookup: Which result was noted for this compound in the test: `Cn1cc(C2=C(c3ccccc3[N+](=O)[O-])C(=O)NC2=O)c2ccccc21`
Found: no

Lookup: Which result was noted for this compound in the test: `Cc1cc(=O)[nH]c(N/N=C/c2cc(Br)ccc2O)n1`
Found: yes

Lookup: Which result was noted for this compound in the test: `O=C(COc1ccc(/C=C2\COc3ccccc3C2=O)cc1)Nc1nccs1`
Found: no

Lookup: Which result was noted for this compound in the test: `Cc1ccc(Cl)cc1Nc1nc(C(F)(F)F)ccc1C(=O)N/N=C/c1cccnc1`
Found: no

Lookup: Which result was noted for this compound in the test: `COC(=O)[C@@H](C)C[C@H](Cc1cn(C)c2ccccc12)NC(=O)c1csc([C@@H](C[C@H](C(C)C)N(C)C(=O)[C@@H](NC(=O)[C@H]2CCCCN2C)C(C)C)OC(C)=O)n1`
Found: yes

Lookup: Which result was noted for this compound in the test: `CCC(CC)c1nc(Nc2ccc(C(=O)OC)cc2)c2ccccc2n1`
Found: no

Lookup: Which result was noted for this compound in the test: `COc1ccc(N=Cc2c(O)ccc3c2oc2cc(Cl)c(O)c(Cl)c23)cc1`
Found: no

Lookup: Which result was noted for this compound in the test: `CC[C@H](NC(=O)[C@H]1CCCCN1C)C(=O)N(C)[C@H](C[C@@H](OC(C)=O)c1nc(C(=O)N[C@@H](Cc2ccccc2)C[C@H](C)C(=O)O)cs1)C(C)C`
Found: yes

Lookup: Which result was noted for this compound in the test: COC1C(CO)OC(n2c3ccccc3c3c4c(c5c6ccccc6[nH]c5c32)C(=O)NC4=O)C(O)C1O (configuration not stated)
Found: yes

Lookup: Which result was noted for this compound in the test: `C[n+]1c(/C=C/c2c[nH]c3ccccc23)ccc2ccccc21`
Found: no

----------
Test system: UACC-257 melanoma
Experiment: NCI tumour cell line growth inhibition, 48 h
*1 amine or outer side, *2 acyl side, *3 side chain or, on linkers, in order; H or OH if unused. Where a SMILES comes first, the peptide text is derived from it. [ ]: non-standard residue; d: D form. The star is where a group is joined. ξ: configuration not given here. X27 = O=C([C@H]1CCC[C@H]1N[*:1])[*:2]; ξW = NC(Cc1c[nH]c2ccccc12)C(=O)O; ξF = NC(Cc1ccccc1)C(=O)O; Boc = CC(C)(C)OC(=O)*; ξK = NCCCCC(N)C(=O)O; ξT = CC(O)C(N)C(=O)O; tBu = CC(C)(C)*
Would you mind telling me the reported TGI of each entry?
Numeric answer only, unit µM assumed.

Lookup: Record request: TGI value, item `COC1=CC(c2ccc[nH]2)=N/C1=C\c1[nH]c(C)c(CC(=O)OCc2ccccc2)c1CCC(=O)OCc1ccccc1`
Found: 3.1

Lookup: Record request: TGI value, item `Cn1cc(C2=C(c3ccccc3[N+](=O)[O-])C(=O)NC2=O)c2ccccc21`
Found: 17.7

Lookup: Record request: TGI value, item CCCCCCCC/C=C/CCCCCCCC1=NC(C)(C)CN1CC(C)O (centres undefined)
Found: 3.54

Lookup: Record request: TGI value, item CC(OC(C)(C)C)C1NC(=O)C(CCCCNC(=O)OC(C)(C)C)NC(=O)C(Cc2c[nH]c3ccccc23)NC(=O)C(Cc2ccccc2)NC(=O)[C@H]2CCC[C@H]2NC(=O)C(Cc2ccccc2)NC1=O (some centres undefined) (cyclo([X27][ξF][ξW][ξK](Boc)[ξT](tBu)[ξF]))
Found: 33.5

Lookup: Record request: TGI value, item `CN(C)c1ccc(/C=C/c2ccnc3c(O)cccc23)cc1`
Found: 3.08

----------
Would you mind telling me the reported TGI of each entry?
System: HT29 colon
Assay: NCI tumour cell line growth inhibition, 48 h
Numeric answer only, unit µM assumed.

Lookup: What measured TGI is associated with `COc1cc2nc(Nc3cccc(Br)c3)nc(Nc3cccc(Br)c3)c2cc1OC` on HT29 colon?
Found: 34.8

Lookup: What measured TGI is associated with `CC(C)(C)n1c(=O)n2n(c1=O)Cc1cccc3cccc(c13)C2` on HT29 colon?
Found: 39.7

Lookup: What measured TGI is associated with `Cc1cc(Nc2ccc(OCc3ccccc3)cc2)nc2cc(O)ccc12` on HT29 colon?
Found: 14.9

Lookup: What measured TGI is associated with `C=C(C)[C@@H]1CC[C@]2(COCCC#N)CC[C@]3(C)[C@H](CC[C@@H]4[C@@](C)(CCCNCCC#N)[C@H](C(=C)C)CC[C@]43C)[C@@H]12` on HT29 colon?
Found: 19.8

Lookup: What measured TGI is associated with O=[N+]([O-])c1ccc(C2CC(c3ccccc3Cl)=Nc3ccccc3S2)cc1 (stereo not given) on HT29 colon?
Found: 45.9

Lookup: What measured TGI is associated with CN(C)CCCC1c2ccccc2Oc2ccc(C(F)(F)F)cc21 (stereo not given) on HT29 colon?
Found: 18.9

----------
Would you mind telling me the reported TGI of each entry?
System: SF-295 CNS
Assay: NCI tumour cell line growth inhibition, 48 h

Lookup: Record request: TGI value, item `CC(C)(C)n1c(=O)n2n(c1=O)Cc1cccc3cccc(c13)C2`
Found: 54.2 µM

Lookup: Record request: TGI value, item `N.N.NCCCCCN.O=C([O-])CCl.O=C([O-])CCl.O=C([O-])CCl.O=C([O-])CCl.[Pt+4].[Pt+4]`
Found: 86 µM

Lookup: Record request: TGI value, item CCOC(=O)C1SC(=Nc2cccc(Cl)c2C)N=C1C (stereo not given)
Found: 39.7 µM

Lookup: Record request: TGI value, item COc1ccccc1C1C(Cl)C(=O)N1n1cnc2ccccc2c1=O (stereo not given)
Found: > 100 µM

Lookup: Record request: TGI value, item `FC(F)(F)c1ccc(Cc2nc3cc4ccccc4cc3[nH]2)cc1`
Found: > 100 µM

Lookup: Record request: TGI value, item `N#Cc1cnc(-n2[nH]c3c(c2=O)CCCC3)[nH]c1=O`
Found: > 100 µM

Lookup: Record request: TGI value, item `COc1ccc(NC(=S)N/N=C\c2ccc(NC(C)=O)cc2)cc1`
Found: > 100 µM

Lookup: Record request: TGI value, item `O=c1cc(-c2ccccc2)oc2ccc(OC/C(=N/O)c3ccccc3)cc12`
Found: 3.34 µM

Lookup: Record request: TGI value, item `CN(C)c1ccc(/C=C/C(=O)[O-])cc1.CN(C)c1ccc(/C=C/C(=O)[O-])cc1.[Cu+2]`
Found: > 100 µM

Lookup: Record request: TGI value, item COc1ccc(C(CCC(C)=O)C(=O)O)cc1OC (stereo not given)
Found: > 100 µM

----------
System: MCF7 breast
Experiment: NCI tumour cell line growth inhibition, 48 h
PARAMETER MEASURED: TGI (µM)
Numeric answer only, unit µM assumed.

Lookup: What measured TGI is associated with `Cc1cc(Nc2ccc(OCc3ccccc3)cc2)nc2cc(O)ccc12` on MCF7 breast?
Found: 14.2

Lookup: What measured TGI is associated with `CO/C=C/C(=O)c1cc2cnc3c(=N)cc(NC(=O)C(C)C)c([nH]1)c23` on MCF7 breast?
Found: 1.25

Lookup: What measured TGI is associated with CCOP(=O)(C=C=C1CCC2[C@@H]3CCc4cc(OC)ccc4C3CC[C@]12C)OCC (stereo partly specified) on MCF7 breast?
Found: 20.7

Lookup: What measured TGI is associated with CC1(C)CC(O)C2=C(O1)C(=O)c1ncccc1C2=O (stereo unspecified) on MCF7 breast?
Found: 5.34

Lookup: What measured TGI is associated with `CCN(CC)Cc1cc(Nc2c3ccccc3nc3c2[nH]c2ccccc23)cc(CN(CC)CC)c1O` on MCF7 breast?
Found: 9.07

----------
Test system: 786-0 renal
Experiment: NCI tumour cell line growth inhibition, 48 h
PARAMETER MEASURED: TGI

Lookup: What measured TGI is associated with `O=C1c2cccnc2S(=O)(=O)N1c1ccc(Oc2ccccc2)cc1` on 786-0 renal?
Found: > 100 µM

Lookup: What measured TGI is associated with `Cc1cccc(-c2[nH]ncc2-c2ccc3ncccc3n2)n1` on 786-0 renal?
Found: > 25 µM

Lookup: What measured TGI is associated with `c1ccc2c(c1)NCCC(=NC1CCCCC1)N2` on 786-0 renal?
Found: > 100 µM

Lookup: What measured TGI is associated with `CC1=C(O)c2cn(C)cc2C(=O)C1=O` on 786-0 renal?
Found: > 100 µM

Lookup: What measured TGI is associated with COC(=O)C(Cc1nc2ccccc2[nH]c1=O)/C(=N\NC(C)(C)C)C(=O)Nc1c(C)cc(Br)cc1C (stereo unspecified) on 786-0 renal?
Found: 34.4 µM

Lookup: What measured TGI is associated with `N#C[C@H](C(=O)c1ccccc1F)c1nc2ccccc2s1` on 786-0 renal?
Found: > 100 µM

Lookup: What measured TGI is associated with `C(/C=C/c1ccccc1)=Nc1ccc2c(c1)Cc1ccccc1-2` on 786-0 renal?
Found: > 100 µM

Lookup: What measured TGI is associated with c1cnn(C23C4C5C6C4C2C6C53)c1 (stereo unspecified) on 786-0 renal?
Found: > 100 µM

Lookup: What measured TGI is associated with `CC1(C)CC(=O)C(/C=N/C(N)=S)=C(O)C1` on 786-0 renal?
Found: > 100 µM

Lookup: What measured TGI is associated with COC(=O)C1=Cc2cc(OC)c(OC)c(OC)c2[C@H](c2cc(OC)c(OC)c(OC)c2)C1C(=O)OC (stereo partly specified) on 786-0 renal?
Found: > 100 µM

Lookup: What measured TGI is associated with `N#Cc1cnc(-n2[nH]c3c(c2=O)CCCC3)[nH]c1=O` on 786-0 renal?
Found: > 100 µM

Lookup: What measured TGI is associated with `Cc1ccc(S(=O)(=O)c2ccc(NC(=O)SCCC(=O)O)cc2)cc1` on 786-0 renal?
Found: > 100 µM

Lookup: What measured TGI is associated with `COc1ccccc1NC(=O)C1=C(C)NC(C)=C(C(=O)Nc2ccccc2OC)C1C1=CC=COC1` on 786-0 renal?
Found: > 100 µM

Lookup: What measured TGI is associated with `CCOC(=O)[C@@H](C)C[C@H](Cc1ccccc1)NC(=O)c1nc([C@@H](C[C@H](C(C)C)N(C)C(=O)[C@@H](NC(=O)[C@H]2CCCCN2C)C(C)C)OC(C)=O)sc1CCOCc1ccccc1` on 786-0 renal?
Found: 1.59 µM

Lookup: What measured TGI is associated with `Nc1c(C(=O)c2ccc(-c3cccnc3)cc2)cnn1-c1ccc(F)cc1` on 786-0 renal?
Found: > 25 µM

Lookup: What measured TGI is associated with `Nc1c(-c2cn(Cc3ccccc3)c3ccccc23)[n+]([O-])c2ccccc2[n+]1[O-]` on 786-0 renal?
Found: > 100 µM

Lookup: What measured TGI is associated with `FC(F)(F)c1ccc(Cc2nc3cc4ccccc4cc3[nH]2)cc1` on 786-0 renal?
Found: > 100 µM

Lookup: What measured TGI is associated with COC1C(CO)OC(n2c3ccccc3c3c4c(c5c6ccccc6[nH]c5c32)C(=O)NC4=O)C(O)C1O (stereo unspecified) on 786-0 renal?
Found: 1.12 µM

Lookup: What measured TGI is associated with `CCN(CC)CC(C)(C)C(=O)/C=C/c1cccc(/C=C/C(=O)C(C)(C)CN(CC)CC)c1` on 786-0 renal?
Found: 1.87 µM

Lookup: What measured TGI is associated with `COc1cccc2ccc(C(=O)c3ccccc3)nc12` on 786-0 renal?
Found: > 100 µM

Lookup: What measured TGI is associated with `CC1(C)N=C(N)N=C(N)N1c1ccc(CCCCc2ccccc2)c(Cl)c1` on 786-0 renal?
Found: 13.1 µM

Lookup: What measured TGI is associated with `Cc1ccc(S(=O)(=O)N2CCN(S(=O)(=O)c3ccc(C)cc3)CCN(S(=O)(=O)c3ccc(C)cc3)Cc3cc(C#N)c(C#N)cc3CN(S(=O)(=O)c3ccc(C)cc3)CC2)cc1` on 786-0 renal?
Found: > 100 µM

Lookup: What measured TGI is associated with `CC(C)N1CC2CN(Cc3ccccc3)CC(C1)C2=O` on 786-0 renal?
Found: > 100 µM

Lookup: What measured TGI is associated with CCCCCCCC/C=C/CCCCCCCC1=NC(C)(C)CN1CC(C)O (stereo unspecified) on 786-0 renal?
Found: 3.16 µM

Lookup: What measured TGI is associated with `COc1cc2nc(Nc3cccc(Br)c3)nc(Nc3cccc(Br)c3)c2cc1OC` on 786-0 renal?
Found: 31 µM

Lookup: What measured TGI is associated with `COc1cc(/C=C2\C[C@H]3[C@@H]4CC=C5C[C@@H](O)CC[C@]5(C)[C@H]4CC[C@]3(C)[C@H]2O)ccc1OCCN1CCCC1` on 786-0 renal?
Found: 16 µM

Lookup: What measured TGI is associated with `N#Cc1c(NC(=O)NCc2ccccc2)sc2c1CCCC2` on 786-0 renal?
Found: > 100 µM

Lookup: What measured TGI is associated with CC(=O)OC1CC2CCN3C(=O)c4cc5c(cc4[C@H](C1OC(C)=O)C23)OCO5 (stereo partly specified) on 786-0 renal?
Found: > 100 µM

Lookup: What measured TGI is associated with `COc1ccc(OC)c(CSc2ccc(OC)c(OC)c2)c1` on 786-0 renal?
Found: > 100 µM

Lookup: What measured TGI is associated with C=C1CC2CCCC12C=O (stereo unspecified) on 786-0 renal?
Found: > 10 µM

Lookup: What measured TGI is associated with `CC(C)(C)c1cc(-c2cc(C(C)(C)C)[nH]n2)n[nH]1` on 786-0 renal?
Found: > 100 µM
